FYI, the data here is from the supplement of paper PMC11061612.

test system: HSC-3 (Oral Cavity Carcinoma); experiment: Bliss excess, mean over the matrix (fraction); higher = more synergy;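 note: after 72 h of two-drug dosing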
EXPERIMENTAL ENDPOINT: Bliss excess

INSERT INTO assay_data (molecule, experimental_endpoint, measured) VALUES
  ('CN(CCO)CC[C@H](CSc1ccccc1)Nc1ccc(S(=O)(=O)NC(=O)c2ccc(N3CCC([C@@H](O)c4ccccc4-c4ccc(Cl)cc4)CC3)cc2)cc1S(=O)(=O)C(F)(F)F [AZD4320] + C[C@@H](Nc1cc(F)cc(F)c1)c1cc(C(=O)N(C)C)cc2c(=O)cc(N3CCOCC3)oc12 [AZD8186] (first compound max 1 µM, 7x7, partner max 3 µM)', 'Bliss excess', 0.0482),
  ('Cc1nc(Nc2ncc(C(=O)Nc3c(C)cccc3Cl)s2)cc(N2CCN(CCO)CC2)n1 [Dasatinib] + CC(=O)Nc1cccc(-n2c(=O)n(C3CC3)c(=O)c3c(Nc4ccc(I)cc4F)n(C)c(=O)c(C)c32)c1 [Trametinib] (first compound max 2 µM, 7x7, partner max 1 µM)', 'Bliss excess', -0.0444);
